Target: Ephrin type-B receptor 4 (Homo sapiens); note: in the data inactive means no Kd found up to 30 µM
Sequence (P54760 whole entry): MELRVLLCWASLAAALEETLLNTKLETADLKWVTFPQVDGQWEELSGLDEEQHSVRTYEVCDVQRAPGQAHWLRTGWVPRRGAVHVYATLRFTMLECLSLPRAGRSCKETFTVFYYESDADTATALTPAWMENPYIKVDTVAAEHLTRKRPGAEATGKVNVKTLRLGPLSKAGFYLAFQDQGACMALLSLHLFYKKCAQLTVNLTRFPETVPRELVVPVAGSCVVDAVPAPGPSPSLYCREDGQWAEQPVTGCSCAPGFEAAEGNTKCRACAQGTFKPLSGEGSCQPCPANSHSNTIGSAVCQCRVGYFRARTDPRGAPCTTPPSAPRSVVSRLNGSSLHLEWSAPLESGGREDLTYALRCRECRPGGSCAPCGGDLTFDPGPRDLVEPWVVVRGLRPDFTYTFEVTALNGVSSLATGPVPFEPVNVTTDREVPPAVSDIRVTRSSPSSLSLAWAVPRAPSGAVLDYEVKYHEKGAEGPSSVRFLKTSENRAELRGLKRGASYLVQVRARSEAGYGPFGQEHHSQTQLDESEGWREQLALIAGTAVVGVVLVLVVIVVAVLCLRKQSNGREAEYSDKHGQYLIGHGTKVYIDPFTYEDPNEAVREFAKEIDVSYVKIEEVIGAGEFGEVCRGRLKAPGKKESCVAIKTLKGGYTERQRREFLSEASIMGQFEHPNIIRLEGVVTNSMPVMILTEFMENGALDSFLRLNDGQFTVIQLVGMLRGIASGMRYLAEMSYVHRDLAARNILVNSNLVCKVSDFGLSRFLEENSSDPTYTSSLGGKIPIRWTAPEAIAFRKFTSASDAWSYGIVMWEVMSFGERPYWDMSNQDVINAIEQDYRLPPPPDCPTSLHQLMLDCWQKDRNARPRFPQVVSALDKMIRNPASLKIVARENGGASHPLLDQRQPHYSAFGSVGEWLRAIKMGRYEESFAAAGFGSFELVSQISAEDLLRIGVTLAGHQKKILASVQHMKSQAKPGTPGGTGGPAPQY
The source made the active and inactive calls.
Outcome (select one): active, inactive

C[C@H]1CNCCCN1S(=O)(=O)c1cccc2cncc(F)c12 : inactive
C=CC(=O)Nc1cc2c(Nc3ccc(F)c(Cl)c3)ncnc2cc1C#CC(C)(C)N1CCN(C)CC1 [AV-412 FREE BASE] : inactive
Cc1cccc(-c2nn3c(c2-c2ccnc4ccc(C(N)=O)cc24)CCC3)n1 : inactive

Please state the recorded outcome for this compound: CNC(=O)c1cccc2cc(Oc3ccnc4cc(OCC5(N)CC5)c(OC)cc34)ccc12 inactive

Please state the recorded outcome for this compound: Cn1cc(-c2cnc3ccc4ccc(CS(=O)(=O)NCc5ccccn5)cc4c(=O)c3c2)cn1 inactive

Please state the recorded outcome for this compound: COc1cc2c(Nc3ccc(Cl)c(Cl)c3F)ncnc2cc1OC[C@@H]1C[C@@H]2CN(C)C[C@@H]2C1 active

###

Molecular target: Dual specificity mitogen-activated protein kinase kinase 6 (Homo sapiens); note: in the data inactive means no Kd found up to 30 µM
Sequence (P52564 whole entry): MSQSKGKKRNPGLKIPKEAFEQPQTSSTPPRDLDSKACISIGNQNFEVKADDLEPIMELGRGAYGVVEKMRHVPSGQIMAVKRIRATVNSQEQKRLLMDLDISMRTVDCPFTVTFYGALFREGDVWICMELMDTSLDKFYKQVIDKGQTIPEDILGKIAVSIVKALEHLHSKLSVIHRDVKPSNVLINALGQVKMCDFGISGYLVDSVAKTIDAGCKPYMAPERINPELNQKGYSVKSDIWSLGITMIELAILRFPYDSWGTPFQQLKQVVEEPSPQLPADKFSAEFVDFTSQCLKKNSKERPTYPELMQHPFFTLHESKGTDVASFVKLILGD
Structures can show the parent of a compound that is named as a salt. Activity calls are given as the source filed them.
Outcome (select one): class 1 = active, class 0 = inactive

Answered examples (5):
Cc1cnc(NC(=O)Nc2cc(Br)c(C)cc2OC[C@@H]2CNCCO2)cn1 : class 0
Cn1cnc2c(F)c(Nc3ccc(Br)cc3F)c(C(=O)NOCCO)cc21 : class 0
Cc1[nH]c(/C=C2\C(=O)Nc3ccccc32)c(C)c1CCC(=O)O [ORANTINIB] : class 0
O=C1NC(=O)[C@@H](c2cn3c4c(cccc24)CCC3)[C@@H]1c1c[nH]c2ccccc12 [TIVANTINIB] : class 0
CCCCCCCCCCCCCCCCCCOP(=O)([O-])OC1CC[N+](C)(C)CC1 : class 0

Please state the recorded outcome for this molecule: O=C(Nc1nc2cccc(-c3ccc(CN4CCS(=O)(=O)CC4)cc3)n2n1)C1CC1 class 0

Please state the recorded outcome for this molecule: O=c1[nH]ccc2cc(OC3CCNCC3)ccc12 [SAR-407899 FREE BASE] class 0

Please state the recorded outcome for this molecule: Cc1nc(Nc2n[nH]c3c2CN(C(=O)N[C@H](CN(C)C)c2ccccc2)C3(C)C)c2sccc2n1 class 0

Please state the recorded outcome for this molecule: C[C@@H](N)c1ccc(C(=O)Nc2ccnc3[nH]ccc23)cc1 class 0

Please state the recorded outcome for this molecule: CO[C@H]1C[C@@H]2CC[C@@H](C)[C@@](O)(O2)C(=O)C(=O)N2CCCC[C@H]2C(=O)O[C@H]([C@H](C)C[C@@H]2CC[C@@H](O)[C@H](OC)C2)CC(=O)[C@H](C)/C=C(\C)[C@@H](O)[C@@H](OC)C(=O)[C@H](C)C[C@H](C)/C=C/C=C/C=C/1C class 0

Please state the recorded outcome for this molecule: COCc1c(-c2ccc(NC(=O)Nc3cc(C(F)(F)F)ccc3F)c(F)c2)c2c(N)ncnn2c1CN1CCOCC1 class 0

Please state the recorded outcome for this molecule: CCS(=O)(=O)N1CCN(c2ccc(Nc3ncc(C(N)=O)c(NC4CC4)n3)cc2)CC1 [Cerdulatinib Hydrochloride] class 0

Please state the recorded outcome for this molecule: C=CC(=O)Nc1cc2c(Nc3ccc(F)c(Cl)c3)ncnc2cc1C#CC(C)(C)N1CCN(C)CC1 [AV-412 FREE BASE] class 0

Please state the recorded outcome for this molecule: O=C(Nc1cc(C(F)(F)F)cc(C(F)(F)F)c1)c1cc(Cl)ccc1O class 0

Please state the recorded outcome for this molecule: C=CC(=O)N1CCC[C@H](n2c(=O)n(-c3ccc(Oc4ccccc4)cc3)c3c(N)ncnc32)C1 class 0

Please state the recorded outcome for this molecule: O=C(Nc1c[nH]nc1-c1nc2cc(CN3CCOCC3)ccc2[nH]1)NC1CC1 class 1
